ASSAY_TEXT: physchem
CONDITIONS: pKa
VALUE_TYPE: pKa
One number for each entry.

CCCCNc1cc(C(=O)O)cc(S(N)(=O)=O)c1Oc1ccccc1 [BUMETANIDE]
3.83

Could I get pKa for every one of these entries?
1. CN1CCN(c2c(F)cc3c(=O)c(C(=O)O)cn(CCF)c3c2F)CC1
2. CN(C)CC/C=C1\c2ccccc2COc2ccccc21 [E-DOXEPIN]
3. CCN1CCCC1CNC(=O)c1cc(S(=O)(=O)CC)c(N)cc1OC (stereo unspecified) [AMISULPRIDE]
4. Nc1ccc(C(=O)O)c(O)c1
5. COc1c(N2CCNC(C)C2)c(F)cc2c(=O)c(C(=O)O)cn(C3CC3)c12 (stereo unspecified)

1. 8.8
2. 9
3. 9.37
4. 3.62
5. 8.74

* * *

ASSAY_TEXT: physchem
Returns one of y or n; y when pKa is >= 8.

Previously resolved entries follow.
CC1CCC(N2CCN(c3ccccc3F)CC2)CC1 (stereo not given)
n
CCN(CC)CCOC(=O)c1ccc(N)cc1Cl
y
O=C(CCCN1CCC(O)(c2ccc(Cl)cc2)CC1)c1ccc(F)cc1
y
CCn1cc(C(=O)O)c(=O)c2cc(F)c(N3CCNC(C)C3)c(F)c21 (stereo not given)
n
Cc1ccc(C)c(N2CCN(C3CCCC(C)C3)CC2)c1 (stereo not given)
n

Could you verify whether the entry Nc1ccc(C(=O)O)c(O)c1 shows pKa of no less than 8?
n

State whether the measured pKa reaches 8, counting equality as reaching it, for O=C1CCCN1CC#CCN1CCCC1
y

Hello, I need to know if Clc1ccc2c(c1)N=C(N1CCNCC1)c1ccccc1N2 has measured pKa not below 8. Thanks!
y

* * *

ASSAY_TEXT: physchem
CONDITIONS: pKa
Where a SMILES comes first, the peptide text is derived from it.
Kindly supply the reported pKa values for the records listed here.
One number for each entry.

CNC(=C[N+](=O)[O-])NCCSCc1ccc(CN(C)C)o1 [RANITIDINE]
8.31
N[C@@H](Cc1c[nH]c2ccccc12)C(=O)N[C@@H](Cc1c[nH]c2ccccc12)C(=O)O (H-Trp-Trp-OH)
3.38
CCCCC[C@H](O)/C=C/[C@H]1[C@H](O)CC(=O)[C@@H]1CCCCCCC(=O)O [ALPROSTADIL]
4.87
Cc1cc(=O)oc2cc(O[C@@H]3O[C@H](CO)[C@@H](O)[C@H](O)[C@H]3O)ccc12
2.82
CCN(CC)C(=O)Nc1ccc(OCC(O)CNC(C)(C)C)c(C(C)=O)c1 (stereo not drawn) [CELIPROLOL]
9.66
N[C@@H](CC(=O)O)C(=O)O [ASPARTIC ACID]
9.67
N[C@@H](Cc1ccccc1)C(=O)O [PHENYLALANINE]
9.08

Okay, next one:
Form field: reported pKa of CNC[C@H](O)[C@@H](O)[C@H](O)[C@H](O)CO [MEGLUMINE]
9.6

* * *

ASSAY_TEXT: physchem
VALUE_TYPE: pKa
One number for each entry.

Would you please look over these solved cases?
CC(CN(C)C)CN1c2ccccc2Sc2ccccc21 (stereo not given) [METHYLPROMAZINE]
8.5
C=C(CC)C(=O)c1ccc(OCC(=O)O)c(Cl)c1Cl [ETHACRYNIC ACID]
3.1
CC1OC(O[C@H]2/C=C/C=C/C=C/C=C/C=C/C=C/C=C/[C@H](C)[C@@H](O)[C@@H](C)[C@H](C)OC(=O)C[C@H](O)C[C@H](O)CC[C@@H](O)[C@H](O)C[C@H](O)C[C@]3(O)C[C@H](O)[C@@H](C(=O)O)[C@H](C2)O3)C(O)C(N)C1O (stereo not given in full)
3.1
CN/C(=C/[N+](=O)[O-])NCCSCc1ccc(CN(C)C)o1
9.6
FC(F)(F)c1cccc(N2CCN(C3C4CC5CC(C4)CC3C5)CC2)c1 (stereo not given)
7.45

The following molecules each have a reported value; give each one's pKa.
1. O=C(O)c1ccccc1-c1ncc(-c2ccccc2)o1
2. NCc1cc(-c2ccccc2)nc2ccccc12

[2.9, 8.37]

* * *

ASSAY_TEXT: physchem
CONDITIONS: pKa
Where a SMILES comes first, the peptide text is derived from it.
Answer each item with its documented pKa.
Numbers only.

Some entries whose results are on file:
CC[C@H]1OC(=O)C[C@@H](O)[C@H](C)[C@@H](O[C@@H]2O[C@H](C)C[C@H](N(C)C)[C@H]2O)[C@@H](CC=O)C[C@@H](C)C(=O)/C=C/C(C)=C/[C@@H]1C
8.83
CC[C@H]1OC(=O)[C@H](C)[C@@H](O[C@H]2C[C@@](C)(OC)[C@@H](O)[C@H](C)O2)[C@H](C)[C@@H](O[C@@H]2O[C@H](C)C[C@H](N(C)C)[C@H]2O)[C@](C)(O)C[C@@H](C)/C(=N\OCOCCOC)[C@H](C)[C@@H](O)[C@]1(C)O
9.27
CO[C@@H]1[C@@H](O[C@@H]2O[C@H](C)[C@@H](O)[C@H](N(C)C)[C@H]2O)[C@@H](CC=O)C[C@@H](C)C(=O)/C=C/[C@@H]2O[C@H]2C[C@@H](C)OC(=O)C[C@H]1OC(C)=O
8.44
CN(C)CCO[C@]1(c2ccccc2)C[C@H]2CC[C@]1(C)C2(C)C
9.61
CCCCC[C@H](O)/C=C/[C@H]1[C@H](O)CC(=O)[C@@H]1C/C=C\CCCC(=O)O
4.77

GET /values?readout=pKa&item= N[C@@H](Cc1c[nH]c2ccccc12)C(=O)N[C@@H](Cc1ccccc1)C(=O)O (H-Trp-Phe-OH)
3.18

* * *

ASSAY_TEXT: physchem
Assign class by pKa: not lower than 8 means true; lower than 8 means false.

Record CC(CN1c2ccccc2Sc2ccccc21)N(C)C (centres undefined) ; criterion: pKa no lower than 8. Met?
true

Could you please find out whether Cn1nnnc1SCC1=C(C(=O)O)N2C(=O)[C@@H](NC(=O)[C@H](O)c3ccccc3)[C@H]2SC1 has pKa that meets 8 or exceeds it?
false

Is the recorded value of pKa equal to or greater than 8 for this compound? Cc1ccc(-n2ncc(C(=O)Nc3nccs3)c2C2CCNCC2)cc1C
true

Please tell me: is the compound O=C(CN1CCCCC1)Nc1nc(-c2ccc(Cl)cc2)cs1 at or over 8 in terms of pKa?
true

* * *

ASSAY_TEXT: physchem
Please note: true (1) applies when pKa is 9 or greater, and false (0) applies otherwise.

CCCCNc1cc(C(=O)O)cc(S(N)(=O)=O)c1Oc1ccccc1 [BUMETANIDE]
false (0)

Dear colleague, could you confirm whether Nc1c2c(nc3ccccc13)-c1ccccc1CC2 has pKa at or above 9?
false (0)

Is reported pKa greater than or equal to 9 here: Nc1cc(-c2ccccc2)nc2ccc(Cl)cc12
false (0)

Confirm if pKa reported for the compound CC(C(=O)O)c1ccc(-c2ccccc2)c(F)c1 (stereo not drawn) is 9 or above.
false (0)

* * *

ASSAY_TEXT: physchem
So I've got a bunch of compounds here, and I need their pKa values.
Answers are plain numbers.

Previously resolved entries follow.
CCCCC1CCN(CCCC(=O)c2ccccc2C)CC1
7.85
O=C(O)c1cccnc1
2.4
CC(NCCC(c1ccccc1)c1ccccc1)c1ccccc1 (stereo not given)
9.3
O=C(O)CSCC(=O)Nc1nc(-c2ccccc2)c(-c2ccccc2)s1
4
Cc1cnc(NC(=O)CN2CCCCC2)s1
10.6

Below are 2 compounds. Give each one its pKa.
1. O=C(O)c1cc(-c2ccccc2)nc(O)n1
2. Cc1nc(NC(=O)CCCC(=O)O)sc1C

2.5
2.5

Provide reported pKa for each item, in the same order as listed.
1. CN(C)CCNC(=O)c1cc(-c2ccccc2)nc2ccccc12
2. Cc1ccc(C)c(N2CCN(C3CCC(C)C3)CC2)c1 (stereo not given)
3. O=C(CN1CCCCC1)Nc1ncc(Cc2cccc3ccccc23)s1

8.3
7.5
10.5

Quick request: pKa for each listed item, please.
1. C=CC1=C(C(=O)O)N2C(=O)[C@@H](NC(=O)/C(=N\O)c3csc(N)n3)[C@H]2SC1
2. CC(C(=O)O)c1ccc(C(=O)c2cccs2)cc1 (stereo not given)
3. CCCCOc1ccc(C(=O)CCN2CCCCC2)cc1
4. CN(C)CCC(c1ccc(Br)cc1)c1ccccn1 (stereo not given)
5. CN1CCN(c2c(F)cc3c(=O)c(C(=O)O)cn(CCF)c3c2F)CC1
6. CCN1CCCC1CNC(=O)c1cc(S(=O)(=O)CC)c(N)cc1OC (stereo not given) [AMISULPRIDE]
7. O=C1NCN(c2ccccc2)C12CCN(CCCC(c1ccc(F)cc1)c1ccc(F)cc1)CC2
8. COc1ccc2nc(NC(=O)CN3CCCCC3)sc2c1

3.35
4.3
9
10.1
5.5
9.3
7.7
10

// input: 8 compounds below; output: pKa for each
1. CC1CCN(CC(=O)Nc2nc(-c3ccccc3)cs2)CC1
2. COc1ccc2nc(NC(=O)CN3CCC(C)CC3)sc2c1
3. CC(Cc1ccc(O)c(O)c1)(NN)C(=O)O (stereo not given)
4. Cc1c(Cl)cccc1-n1ncc(C(=O)Nc2nccs2)c1C1CCNCC1
5. O=C(CCCN1CC=C(n2c(=O)[nH]c3ccccc32)CC1)c1ccc(F)cc1
6. CN(C/C=C/C#CC(C)(C)C)Cc1cccc2ccccc12
7. COc1c(N2CCNC(C)C2)c(F)cc2c(=O)c(C(=O)O)cn(C3CC3)c12 (stereo not given)
8. CCOc1cc(CC(=O)N[C@@H](CC(C)C)c2ccccc2N2CCCCC2)ccc1C(=O)O [REPAGLINIDE]

10.5
10
3.5
9.4
7.6
7.12
9.4
3.75
